# System: Wnt/β-catenin signaling pathway (Wnt-responsive SP5 promoter luciferase reporter in SW480 cells)
# assayDetails: Wnt reporter (SP5 promoter-firefly luciferase) activation assay in SW480 cells
# Type: cell-based
# testConditions: Homo sapiens; SW480 colon cancer cells with SP5 promoter luciferase reporter; 24 h after compound addition; normalized to DMSO; concentration at half maximal activation
pEC50: −log10 of the molar value.
Think of 7 as a floor: if pEC50 stands on it or above, it is Yes; beneath it, No.

[[record]]
smi = "O=C(CCC(=O)c1ccccc1C(F)(F)F)c1ccc2[nH]ncc2c1"
answerlabel = "Yes"

[[record]]
smi = "O=C(CCC(=O)c1ncccc1C(F)(F)F)c1ccc2c(c1)OCCO2"
answerlabel = "Yes"

[[record]]
smi = "Cc1ccccc1C(=O)CCC(=O)c1ccc2c(c1)OCCO2"
answerlabel = "Yes"

[[record]]
smi = "O=C(CCC(=O)c1ncccn1)c1ccc2c(c1)OCCO2"
answerlabel = "Yes"

[[record]]
smi = "COc1ccccc1C(=O)CCC(=O)c1ccc2c(c1)OCCC2"
answerlabel = "Yes"

[[record]]
smi = "Cc1cccc(C(=O)CCC(=O)c2ccc3occc3c2)c1"
answerlabel = "No"

[[record]]
smi = "COc1ccccc1C(=O)CCC(=O)c1n[nH]c2ccccc12"
answerlabel = "No"

[[record]]
smi = "O=C(CCC(=O)c1ccco1)c1ccccn1"
answerlabel = "No"


Origin of measurements: patent US10457672B2
